The measured values listed here are drawn from patent US20110059886A1.

molecular target: HCV NS3 protease genotype 2a (Hepatitis C virus genotype 2a, UniProt P26660, L1043K/T1046A/V1183I); construct: DNA fragment encoding residues Ala^1-Ser^181 of several isolates of genotype 2a or 2b; hexa-histidine (C); made in house; host or cells: E. coli BL21/DE3 pLysS; assay: Inhibition constant from steady-state rates of progress curves; type: biochemical; settings: steady-state portion of progress curves, Morrison fit, read-out: Ki using steady-state rates
Sequence (P26660 1031-1211, looked up, stated change not applied, other chains not shown): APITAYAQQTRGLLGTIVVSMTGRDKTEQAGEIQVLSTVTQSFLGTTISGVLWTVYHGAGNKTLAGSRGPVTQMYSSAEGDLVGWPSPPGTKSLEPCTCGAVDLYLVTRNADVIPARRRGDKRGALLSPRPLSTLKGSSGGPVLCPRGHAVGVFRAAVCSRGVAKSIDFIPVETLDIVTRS
VALUE TYPE: pKi
Answers are plain numbers, as −log10 of the molar value.

Problem: Given CCC[C@H](NC(=O)[C@@H]1[C@H]2CCC[C@H]2CN1C(=O)[C@@H](NC(=O)[C@@H](NC(=O)c1cnccn1)C1CCCCC1)C(C)(C)C)C(=O)C(=O)NC1CC1 , state its recorded pKi.
Result: 7.49

====

target: HCV NS3 protease genotype 3a (Hepatitis C virus genotype 3a, UniProt Q81258, I1084M/L1045K/S1134A/S1198A); construct: DNA fragment encoding residues Ala^1-Ser^181 of several isolates of genotype 2a or 2b; hexa-histidine (C); made in house; host or cells: E. coli BL21/DE3 pLysS; assay: Inhibition constant from steady-state rates of progress curves; assay type: biochemical; conditions: steady-state portion of progress curves, Morrison fit, read-out: Ki using steady-state rates
Sequence (Q81258 1033-1213, looked up, stated change not applied, other chains not shown): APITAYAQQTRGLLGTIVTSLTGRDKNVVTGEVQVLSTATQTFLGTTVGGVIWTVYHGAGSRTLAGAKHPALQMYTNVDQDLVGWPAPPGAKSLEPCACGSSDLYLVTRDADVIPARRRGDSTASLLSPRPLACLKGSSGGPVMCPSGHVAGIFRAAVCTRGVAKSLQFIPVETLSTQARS
VALUE TYPE: pKi
Numbers only, as −log10 of the molar value.

Problem: Given CCC[C@H](NC(=O)[C@@H]1[C@H]2CCC[C@H]2CN1C(=O)[C@@H](NC(=O)[C@@H](NC(=O)c1cnccn1)C1CCCCC1)C(C)(C)C)C(=O)C(=O)NC1CC1 , state its recorded pKi.
Result: 6.57

====

molecular target: HCV NS3 protease genotype 2a (Hepatitis C virus genotype 2a, UniProt P26660, L1043K/T1046A/V1183I); construct: DNA fragment encoding residues Ala^1-Ser^181 of several isolates of genotype 2a or 2b; hexa-histidine (C); made in house; host or cells: E. coli BL21/DE3 pLysS; test: HPLC peptide cleavage assay, apparent Ki; format: biochemical; conditions: 15 min preincubation, NS5AB at Km
VALUE TYPE: Ki (nM)
Answers are plain numbers, in nM.

Problem: Given CCC[C@H](NC(=O)[C@@H]1[C@H]2CCC[C@H]2CN1C(=O)[C@@H](NC(=O)[C@@H](NC(=O)c1cnccn1)C1CCCCC1)C(C)(C)C)C(=O)C(=O)NC1CC1 [VX-950] , state its recorded Ki.
Result: 40

====

biological target: HCV NS3 protease genotype 2a (Hepatitis C virus genotype 2a, UniProt P26660, L1043K/T1046A/V1183I); construct: DNA fragment encoding residues Ala^1-Ser^181 of several isolates of genotype 2a or 2b; hexa-histidine (C); made in house; host or cells: E. coli BL21/DE3 pLysS; assay: Progress curve analysis of slow binding inhibition; type: biochemical
VALUE TYPE: Ki (µM)
Numbers only, in µM.

Problem: Given CCC[C@H](NC(=O)[C@@H]1[C@H]2CCC[C@H]2CN1C(=O)[C@@H](NC(=O)[C@@H](NC(=O)c1cnccn1)C1CCCCC1)C(C)(C)C)C(=O)C(=O)NC1CC1 , state its recorded Ki.
Result: 0.067
